B1: library; a variant is named by its letters at N, in order (parent)
chain: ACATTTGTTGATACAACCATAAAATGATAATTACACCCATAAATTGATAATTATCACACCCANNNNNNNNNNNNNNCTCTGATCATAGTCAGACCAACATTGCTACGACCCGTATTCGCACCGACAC

variants of: B1; assay: relative integration efficiency (T-RL orientation) vs wild-type transposon end (log2 (normalized fold change)); transposon end mutated: right end (5 bp flank + 75 bp right end); higher = more efficient transposition; conditions: with VchCAST RNA-guided transposition machinery (E. coli BL21(DE3) host, lacZ target)
metric: relative integration efficiency (log2)
Answers are plain numbers.

Here are 8 variants together with their reported answers.
Query: // Input: TAAATTGATATTGC C18A . Output its relative integration efficiency (log2) only.
Result: -0.147

Query: Please report relative integration efficiency (log2) for the following variant: TAAATTGATATTGC A53C
Result: -0.408

Query: Give the reported relative integration efficiency (log2) for this variant. TAAATTGATATTGC C77A
Result: -0.111

Query: Identify relative integration efficiency (log2) associated with the variant TAAATTGATATTGC T4G
Result: -0.174

Query: For the variant TAAATTGATATTGC A30G , give its reported relative integration efficiency (log2).
Result: -0.795

Query: # return recorded relative integration efficiency (log2) for input TAAATTGATATTGC C61A
Result: -0.241

Query: Supply reported relative integration efficiency (log2) belonging to this variant: TAAATTGATATTGC A24T
Result: -0.125

Query: In one line, give reported relative integration efficiency (log2) of the entry TAAATTGATATTGC T9A .
Result: -0.0594

Provide the reported relative integration efficiency (log2) of each entry below, same order.
1. TAAATTGATATTGC A30T
2. ATTTAACTATAACG A21T

Result:
1. -0.464
2. -0.978

Data provenance is the supplement of paper PMC10201428.
